Where do these numbers come from? They come from paper PMC6545551.

# Assay Comment: Plasma protein binding, free fraction across species
# Type: in vitro ADME
# Experimental Setup: mouse, dog, human
Readout Label: fraction unbound at 4.5 h

>  <Molecule>
Cc1ccc(C2=C(c3ccc(F)cc3)C(=O)OC2(C)C)cc1 [Compound 4]

>  <Recorded Measurement>
0.0099 to 0.025

$$$$

====

# Assay Comment: In vivo plasma half-life of FDF in mice
# Experimental Setup: male, CD-1, mouse, ip, 10 mg/kg
Readout Label: half-life (h)

>  <Compound>
Cc1ccc(C2=C(c3ccc(F)cc3)C(=O)OC2(C)C)cc1 [Compound 4]

>  <Readout Label>
half-life

>  <Recorded Measurement>
1.2

$$$$

====

pIC50: −log10 of the molar value.
Please consider the recorded pIC50 for ovine COX-1 (Ovis aries) in what follows.
Readout Label: pIC50

>  <Molecule Smiles>
CC1(C)OC(=O)C(c2ccc(F)cc2)=C1c1ccccc1

>  <Target Desc>
ovine COX-1 (Ovis aries)
Sequence (P05979 25-600): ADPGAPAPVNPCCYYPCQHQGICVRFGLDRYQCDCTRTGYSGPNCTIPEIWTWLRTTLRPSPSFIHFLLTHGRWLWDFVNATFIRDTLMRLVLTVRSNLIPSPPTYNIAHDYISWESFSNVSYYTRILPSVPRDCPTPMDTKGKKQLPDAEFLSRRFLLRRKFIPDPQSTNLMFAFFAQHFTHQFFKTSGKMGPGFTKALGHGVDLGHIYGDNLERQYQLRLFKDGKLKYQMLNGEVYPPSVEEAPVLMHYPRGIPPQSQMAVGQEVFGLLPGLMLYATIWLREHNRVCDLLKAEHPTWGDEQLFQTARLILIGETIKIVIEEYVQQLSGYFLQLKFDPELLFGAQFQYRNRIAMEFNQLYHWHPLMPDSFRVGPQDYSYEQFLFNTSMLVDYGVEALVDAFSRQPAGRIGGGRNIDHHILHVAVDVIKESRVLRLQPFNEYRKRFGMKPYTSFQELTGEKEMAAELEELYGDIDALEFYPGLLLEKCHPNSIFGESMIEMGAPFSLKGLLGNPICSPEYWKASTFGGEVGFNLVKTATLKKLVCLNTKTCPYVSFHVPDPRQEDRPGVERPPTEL

>  <Readout Label>
pIC50

>  <Relation>
=

>  <Recorded Measurement>
6.19

$$$$
>  <Molecule Smiles>
CC1(C)OC(=O)C(c2ccccc2)=C1c1ccccc1

>  <Target Desc>
ovine COX-1 (Ovis aries)

>  <Readout Label>
pIC50

>  <Relation>
=

>  <Recorded Measurement>
6.44

$$$$
>  <Molecule Smiles>
Cc1ccc(C2=C(c3ccc(F)cc3)C(=O)OC2(C)C)cc1

>  <Target Desc>
ovine COX-1 (Ovis aries)

>  <Readout Label>
pIC50

>  <Relation>
=

>  <Recorded Measurement>
6.85

$$$$
>  <Molecule Smiles>
Cc1ccc(C2=C(c3ccccc3)C(=O)OC2(C)C)cc1

>  <Target Desc>
ovine COX-1 (Ovis aries)

>  <Readout Label>
pIC50

>  <Relation>
=

>  <Recorded Measurement>
7.30

$$$$
>  <Molecule Smiles>
COc1ccc([I+]c2ccc(C3=C(c4ccc(C)cc4)C(C)(C)OC3=O)cc2)cc1.Cc1ccc(S(=O)(=O)[O-])cc1

>  <Target Desc>
ovine COX-1 (Ovis aries)

>  <Readout Label>
pIC50

>  <Relation>
<

>  <Recorded Measurement>
4.60

$$$$
>  <Molecule Smiles>
Cc1ccc(C2=C(c3ccc(I)cc3)C(=O)OC2(C)C)cc1

>  <Target Desc>
ovine COX-1 (Ovis aries)

>  <Readout Label>
pIC50

>  <Relation>
=

>  <Recorded Measurement>
7.40

$$$$
>  <Molecule Smiles>
Cc1ccc(C2=C(c3cccc(F)c3)C(=O)OC2(C)C)cc1

>  <Target Desc>
ovine COX-1 (Ovis aries)

>  <Readout Label>
pIC50

>  <Relation>
=

>  <Recorded Measurement>
7.30

$$$$

====

# Assay Comment: Plasma protein binding, dog plasma
# Type: in vitro ADME

>  <Compound>
Cc1ccc(C2=C(c3ccc(F)cc3)C(=O)OC2(C)C)cc1 [Compound 4]

>  <fraction unbound at 4.5 h>
~0.01

$$$$

====

# Assay Comment: Plasma protein binding, human plasma
# Type: in vitro ADME

>  <Molecule>
Cc1ccc(C2=C(c3ccc(F)cc3)C(=O)OC2(C)C)cc1 [Compound 4]

>  <fraction unbound at 4.5 h>
~0.01

$$$$

====

# Assay Comment: Plasma protein binding, mouse plasma
# Format: in vitro ADME
Readout Label: fraction unbound at 4.5 h

>  <Molecule Smiles>
Cc1ccc(C2=C(c3ccc(F)cc3)C(=O)OC2(C)C)cc1

>  <Readout Label>
fraction unbound at 4.5 h

>  <Recorded Measurement>
0.025

$$$$

====

# Target Desc: COX-1 in OVCAR3 cells (Homo sapiens)
# Sequence (P23219 24-599): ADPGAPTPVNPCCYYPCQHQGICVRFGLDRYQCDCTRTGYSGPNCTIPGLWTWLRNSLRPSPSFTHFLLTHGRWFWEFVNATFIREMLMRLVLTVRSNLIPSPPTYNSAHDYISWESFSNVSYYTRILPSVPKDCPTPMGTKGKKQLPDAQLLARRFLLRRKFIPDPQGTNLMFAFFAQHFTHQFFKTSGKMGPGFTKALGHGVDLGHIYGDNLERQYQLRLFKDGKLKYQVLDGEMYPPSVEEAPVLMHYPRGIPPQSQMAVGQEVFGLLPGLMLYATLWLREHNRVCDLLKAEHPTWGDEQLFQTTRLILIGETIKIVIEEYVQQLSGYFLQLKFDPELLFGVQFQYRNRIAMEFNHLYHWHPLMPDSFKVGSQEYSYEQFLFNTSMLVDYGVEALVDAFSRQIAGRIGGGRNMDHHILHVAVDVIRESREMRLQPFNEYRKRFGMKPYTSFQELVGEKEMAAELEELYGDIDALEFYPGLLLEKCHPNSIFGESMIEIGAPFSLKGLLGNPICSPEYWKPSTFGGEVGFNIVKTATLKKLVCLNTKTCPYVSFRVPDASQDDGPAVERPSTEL
# Assay Comment: Inhibition of COX-1 in intact OVCAR3 cells
pIC50: −log10 of the molar value.
Readout Label: pIC50

>  <Molecule Smiles>
Cc1ccc(C2=C(c3cccc(F)c3)C(=O)OC2(C)C)cc1

>  <Relation>
=

>  <Recorded Measurement>
6.89

$$$$
>  <Molecule Smiles>
COc1ccc([I+]c2ccc(C3=C(c4ccc(C)cc4)C(C)(C)OC3=O)cc2)cc1.Cc1ccc(S(=O)(=O)[O-])cc1

>  <Relation>
<

>  <Recorded Measurement>
5.30

$$$$
>  <Molecule Smiles>
Cc1ccc(C2=C(c3ccc(F)cc3)C(=O)OC2(C)C)cc1

>  <Relation>
=

>  <Recorded Measurement>
6.66

$$$$
>  <Molecule Smiles>
Cc1ccc(C2=C(c3ccc(I)cc3)C(=O)OC2(C)C)cc1

>  <Relation>
=

>  <Recorded Measurement>
6.10

$$$$
>  <Molecule Smiles>
CC1(C)OC(=O)C(c2ccc(F)cc2)=C1c1ccccc1

>  <Relation>
=

>  <Recorded Measurement>
6.55

$$$$
>  <Molecule Smiles>
Cc1ccc(C2=C(c3ccccc3)C(=O)OC2(C)C)cc1

>  <Relation>
=

>  <Recorded Measurement>
6.31

$$$$
>  <Molecule Smiles>
CC1(C)OC(=O)C(c2ccccc2)=C1c1ccccc1

>  <Relation>
=

>  <Recorded Measurement>
6.92

$$$$
